B1: HDV Ribozyme (parent)
chain: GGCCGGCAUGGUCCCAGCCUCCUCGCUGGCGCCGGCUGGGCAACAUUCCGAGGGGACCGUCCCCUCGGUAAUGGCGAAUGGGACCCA

variants of: B1; assay: self-cleavage, relative activity (ratio to wild type); higher = more cleavage; co-transcriptional
Below: a set of entries, each annotated with reported self-cleavage.
Respond with the number and no other words.

GGCCGGCAUGGUCCCAGCCUCCUCGCUGGCGCCGGCUGGGCAACAUUCCGAGGGGACCGUCCUCUCGGUAAUGGCGAAUGGGACCAA [C63U C86A] : 0.96
GGCCGGCAUGGCCCCAGCCUCCUCGCUGGCGCCGGCCGGGCAACAUUCCGAGGGGACCGUCCCCUCGGUAAUGGCGAAUGGGACCCA [U12C U37C] : 0.35
GGCCGGCAUGGUCCCAGCCUCCUCGCUGGCGCCGGCUGGGCAUCAUUCCGAGGGGACCGUCCCCUCGGUAAUGGCGAAUGUGACCCA [A43U G81U] : 0.16
GGCCGGCAUGGUCCCAGCCUCCUCGCUGGCGCCGGCUGCGCAACAUUCCGAGGGGACCGUCCCCUCGGUAAUGGCGAAUGGGACGCA [G39C C85G] : 0.298
GGCCGGCAUGGUCCCAGCCUCCUCGCUGGCGCGGGCUGGGCAACAUUCCGAGGGGACCGUCCCCUCGGUAAUGGCGAAUGGGACCCU [C33G A87U] : 0.151
GGCCGGCAUGGUCCCAGACUCCUCGCUGGCGCCGGCUGGGCAACAUUCCGAGGGGACCGUCCCGUCGGUAAUGGCGAAUGGGACCCA [C18A C64G] : 0.0678
GGCAGGCAUGGUCCCAGCCUCCUCGCUGGCGCCGGCUGGGCAACAUUCCGAGGGGACCGUCCCCUAGGUAAUGGCGAAUGGGACCCA [C4A C66A] : 0.177
GGCCGGCAUGGUCCCAGCCUCCUCGCUGGCGCCGGCUGGGUAACAUUCCGAGGGGACCAUCCCCUCGGUAAUGGCGAAUGGGACCCA [C41U G59A] : 1

Find the recorded self-cleavage belonging to GGCCGGCAUGGUCCCAGCCUCCUCGCUGGCGCCGGCUGCGCAACAUUCCGAGGGGGCCGUCCCCUCGGUAAUGGCGAAUGGGACCCA [G39C A56G] and report it.
0.356

Now give it for GGCCGGCAUGGUCCCAGCCUCCUCGCUGGCCCCGGCUGGGCAACAUUCCGAGGGGACCGUCCCCUCGGUAAUGGAGAAUGGGACCCA [G31C C75A] too.
0.13

Okay, and GUCCGGCAUGGUCCCAGCCUCCUCGCUGGCGCCGGCUGGGCAACAUUCCGAGGGGACCGUCCCCUCGGUAAUGGCCAAUGGGACCCA [G2U G76C] ?
0.0279

Cool, now GGCCGGCAUGGUCCCAGCCUCCUCGCUGGCGCCGGCUGGCCAACAUUCCGAGGGGACCGUCCCCUCGGUAAUGGCGAAUCGGACCCA [G40C G80C]
0.0608

Ref: the RNAGym collection of RNA variant scans (doi:10.7554/elife.80360)
